Where do these numbers come from? They come from patent US20260152509A1.

Biological target: SERT (Homo sapiens, UniProt P31645)
Sequence (P31645 whole entry, species assumed): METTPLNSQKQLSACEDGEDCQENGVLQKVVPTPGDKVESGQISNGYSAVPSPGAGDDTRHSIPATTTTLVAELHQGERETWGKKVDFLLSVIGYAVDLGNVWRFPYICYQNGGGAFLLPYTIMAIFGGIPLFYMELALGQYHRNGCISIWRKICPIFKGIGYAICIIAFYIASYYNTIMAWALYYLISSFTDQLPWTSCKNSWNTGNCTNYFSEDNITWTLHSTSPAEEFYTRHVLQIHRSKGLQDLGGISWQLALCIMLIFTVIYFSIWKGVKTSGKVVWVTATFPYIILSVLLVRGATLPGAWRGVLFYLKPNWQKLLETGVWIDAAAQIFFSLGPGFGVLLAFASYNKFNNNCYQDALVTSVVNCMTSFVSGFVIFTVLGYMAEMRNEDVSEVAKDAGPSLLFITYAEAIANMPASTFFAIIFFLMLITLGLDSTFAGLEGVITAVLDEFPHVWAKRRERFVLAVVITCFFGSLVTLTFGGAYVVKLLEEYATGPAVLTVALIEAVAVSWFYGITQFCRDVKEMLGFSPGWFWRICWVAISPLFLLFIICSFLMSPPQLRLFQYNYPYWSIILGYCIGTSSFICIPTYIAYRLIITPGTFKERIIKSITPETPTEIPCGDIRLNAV
Test: SERT inhibition, Neurotransmitter Transportation Fluorescence assay
Details: 30 minutes at 37° C.
recorded.endpoint: IC50 (nM)
Numbers only, in nM.

smiles.text: COc1ccc([C@@]23C=CC4(C[C@@H]2N(C)CC3)SCCS4)cc1OC
test.target: SERT (Homo sapiens, UniProt P31645)
readout.value: 159

Below are some compounds; for each one, tell me its IC50.
1. COc1ccc([C@@]23C=CC4(C[C@@H]2N(C)CC3)OCCO4)cc1OC
2. COc1ccc([C@]23C=CC4(C[C@H]2N(C)CC3)SCCS4)cc1OC

Out:
1: 581; 2: 405

In: I am curious: what IC50 value has been reported for COc1ccc([C@]23C=CC4(C[C@H]2N(C)CC3)OCCO4)cc1OC ?
Out: 939
